# Tested on: Saccharomyces cerevisiae
# EXPERIMENTAL_DETAILS: protein stability index of tFT-peptide fusion (C-terminal peptide) (PSI (0-1 scale)); higher = more stable (slower turnover)
# CONDITION_SET: genetic background: das1 deletion; temperature: 30 C
Measured protein stability index of individual entries
API doc: respond with a numeric literal and nothing else, no unit.

Query: Value lookup for protein stability index; key = NEDLGLSDIKVE [ZPR1 C-terminal 12 aa]
Reply: 0.694

Query: Value lookup for protein stability index; key = STSCDVIQSRNA [MET22 C-terminal 12 aa]
Reply: 0.71

Query: Value lookup for protein stability index; key = LASEAAVGCNKS [YKL156C-A C-terminal 12 aa]
Reply: 0.688

Query: Value lookup for protein stability index; key = EVENDRQIHRML [IDI1 C-terminal 12 aa]
Reply: 0.692

###

# System: Saccharomyces cerevisiae
# EXPERIMENTAL_DETAILS: protein stability index of tFT-peptide fusion (C-terminal peptide) (PSI (0-1 scale)); higher = more stable (slower turnover)
# CONDITION_SET: genetic background: wild type; temperature: 30 C
PARAMETER: protein stability index
API doc: respond with a numeric literal and nothing else, no unit.

Query: Value lookup for protein stability index; key = FLFLSPLALHVS
Reply: 0.304

###

# Test system: Saccharomyces cerevisiae
# EXPERIMENTAL_DETAILS: protein stability index of tFT-peptide fusion (C-terminal peptide) (PSI (0-1 scale)); higher = more stable (slower turnover)
# CONDITION_SET: genetic background: cdc53-1; temperature: 37 C
PARAMETER: protein stability index
API doc: respond with a numeric literal and nothing else, no unit.

Query: Value lookup for protein stability index; key = YGHLPLLVLFCV
Reply: 0.509

Query: Value lookup for protein stability index; key = PCYRPPLPALLS
Reply: 0.69

Query: Value lookup for protein stability index; key = FLLYSILLAFLL
Reply: 0.503

###

Measured protein stability index of individual entries
# System: Saccharomyces cerevisiae
# EXPERIMENTAL_DETAILS: protein stability index of tFT-peptide fusion (C-terminal peptide) (PSI (0-1 scale)); higher = more stable (slower turnover)
# CONDITION_SET: genetic background: wild type; temperature: 30 C
API doc: respond with a numeric literal and nothing else, no unit.

Query: Value lookup for protein stability index; key = WGIYEELVKRFM [HEM25 C-terminal 12 aa]
Reply: 0.707

Query: Value lookup for protein stability index; key = NTQVDDETKKNN [YDC1 C-terminal 12 aa]
Reply: 0.737

Query: Value lookup for protein stability index; key = NNNIANDYMDID [YML053C C-terminal 12 aa]
Reply: 0.815

Query: Value lookup for protein stability index; key = RKEVIDALVSLS [AIM46 C-terminal 12 aa]
Reply: 0.688

Query: Value lookup for protein stability index; key = KDSKNGASTLTS [YSW1 C-terminal 12 aa]
Reply: 0.672

Continuing:
Query: Value lookup for protein stability index; key = APTPEACESCSG [RNR3 C-terminal 12 aa]
Reply: 0.695

Query: Value lookup for protein stability index; key = LLQVYDRVKASM [TOP3 C-terminal 12 aa]
Reply: 0.599

Query: Value lookup for protein stability index; key = EREGGDEHDDMA [PWP1 C-terminal 12 aa]
Reply: 0.708

Query: Value lookup for protein stability index; key = VEGKNAAASGSA [LEU4 C-terminal 12 aa]
Reply: 0.682

Query: Value lookup for protein stability index; key = GTLVLGTYLLAQ [SHH3 C-terminal 12 aa]
Reply: 0.639
